Known shrunken log2 fold change of a selection of sequences
System: Escherichia coli TOP10;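 note: peptides expressed intracellularly from a pBAD plasmid library in pooled LB shake-flask culture, induced with 0.3% L-arabinose, DNA abundance read by NGS, three biological replicates, DESeq2 with apeglm shrinkage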
Experiment: shrunken log2 fold change of peptide-encoding DNA abundance (4.5 h post-induction vs induction); higher = less antimicrobial activity (less host growth inhibition)
Details: time post-induction: 4.5 h; library: site-saturation at positions 5, 18, 19, 20
Lab note: jot the number down without any unit.

Use the examples below as a reference point.
| sequence.code | shrunken log2 fold change |
| --- | --- |
| RRIRPRPPRLPRPRPRPSLSPRP | 0.022 |
| RRIRTRPPRLPRPRPRPIEDPRP | 0.0177 |
| RRIRNRPPRLPRPRPRPSCMPRP | -0.755 |
| RRIRARPPRLPRPRPRPPYAPRP | 0.251 |
| RRIRARPPRLPRPRPRPVYNPRP | -0.482 |

shrunken log2 fold change in this record for RRIRDRPPRLPRPRPRPKWDPRP : 0.488

shrunken log2 fold change in this record for RRIRARPPRLPRPRPRPSYAPRP : -0.165

shrunken log2 fold change in this record for RRIRLRPPRLPRPRPRPTWDPRP : 0.183

shrunken log2 fold change in this record for RRIRQRPPRLPRPRPRPRQTPRP : 0.161

shrunken log2 fold change in this record for RRIRARPPRLPRPRPRPKTRPRP : 0.689

shrunken log2 fold change in this record for RRIRPRPPRLPRPRPRPGMYPRP : -0.0544

shrunken log2 fold change in this record for RRIRTRPPRLPRPRPRPHIGPRP : -0.156

shrunken log2 fold change in this record for RRIRKRPPRLPRPRPRPLTEPRP : 0.397

shrunken log2 fold change in this record for RRIRNRPPRLPRPRPRPLRYPRP : 0.0165
